# target under test: wild type (WT) pfDHFR (Plasmodium falciparum, UniProt P13922, N108S/R59C)
# Sequence (P13922 whole entry R59C/N108S): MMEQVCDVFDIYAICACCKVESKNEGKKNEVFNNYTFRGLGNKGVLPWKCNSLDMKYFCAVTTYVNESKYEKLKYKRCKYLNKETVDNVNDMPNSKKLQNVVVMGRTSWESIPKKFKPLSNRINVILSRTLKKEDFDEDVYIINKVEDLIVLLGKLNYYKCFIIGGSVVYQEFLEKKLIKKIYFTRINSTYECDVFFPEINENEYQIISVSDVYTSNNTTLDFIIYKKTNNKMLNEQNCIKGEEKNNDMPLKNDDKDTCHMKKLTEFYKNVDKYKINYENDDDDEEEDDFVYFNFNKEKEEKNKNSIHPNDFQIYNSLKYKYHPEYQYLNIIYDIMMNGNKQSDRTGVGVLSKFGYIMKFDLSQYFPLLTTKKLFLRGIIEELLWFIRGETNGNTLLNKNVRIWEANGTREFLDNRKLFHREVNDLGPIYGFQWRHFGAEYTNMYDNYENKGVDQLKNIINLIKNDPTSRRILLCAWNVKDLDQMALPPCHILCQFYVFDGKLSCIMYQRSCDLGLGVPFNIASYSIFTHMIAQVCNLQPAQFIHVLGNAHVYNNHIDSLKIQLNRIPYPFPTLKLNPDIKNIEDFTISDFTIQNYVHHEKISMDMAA
# protocol description: Inhibition of wild type pfDHFR (Ki)
pKi: −log10 of the molar value.
pKi for assorted compounds
observation type: pKi

smiles text | target under test | value
CCc1nc(N)nc(N)c1OCc1coc(-c2ccc(OCC(=O)OCc3ccccc3)cc2)n1 | wild type (WT) pfDHFR (Plasmodium falciparum, UniProt P13922, N108S/R59C) | 9.09
CCc1nc(N)nc(N)c1OCc1csc(-c2ccc(Cl)cc2)n1 | wild type (WT) pfDHFR (Plasmodium falciparum, UniProt P13922, N108S/R59C) | 9.13
CCc1nc(N)nc(N)c1OCc1csc(-c2ccc(C(=O)O)cc2)n1 | wild type (WT) pfDHFR (Plasmodium falciparum, UniProt P13922, N108S/R59C) | 9.16
CCc1nc(N)nc(N)c1OCCCc1cn(-c2ccc(C(=O)O)cc2)nn1 | wild type (WT) pfDHFR (Plasmodium falciparum, UniProt P13922, N108S/R59C) | 9.46
CCc1nc(N)nc(N)c1OCc1cn(Cc2cc(F)c(O)c(F)c2)nn1 | wild type (WT) pfDHFR (Plasmodium falciparum, UniProt P13922, N108S/R59C) | 8.03
CCc1nc(N)nc(N)c1-c1cn(Cc2ccc(OC(=O)N(c3ccccc3)c3ccccc3)cc2)nn1 | wild type (WT) pfDHFR (Plasmodium falciparum, UniProt P13922, N108S/R59C) | 7.99
